- Target of assay: TRPA1 receptor (Homo sapiens, UniProt O75762)
- Construct: expressed in transfected cells; host or cells: HEK cell line
- Sequence (O75762 whole entry): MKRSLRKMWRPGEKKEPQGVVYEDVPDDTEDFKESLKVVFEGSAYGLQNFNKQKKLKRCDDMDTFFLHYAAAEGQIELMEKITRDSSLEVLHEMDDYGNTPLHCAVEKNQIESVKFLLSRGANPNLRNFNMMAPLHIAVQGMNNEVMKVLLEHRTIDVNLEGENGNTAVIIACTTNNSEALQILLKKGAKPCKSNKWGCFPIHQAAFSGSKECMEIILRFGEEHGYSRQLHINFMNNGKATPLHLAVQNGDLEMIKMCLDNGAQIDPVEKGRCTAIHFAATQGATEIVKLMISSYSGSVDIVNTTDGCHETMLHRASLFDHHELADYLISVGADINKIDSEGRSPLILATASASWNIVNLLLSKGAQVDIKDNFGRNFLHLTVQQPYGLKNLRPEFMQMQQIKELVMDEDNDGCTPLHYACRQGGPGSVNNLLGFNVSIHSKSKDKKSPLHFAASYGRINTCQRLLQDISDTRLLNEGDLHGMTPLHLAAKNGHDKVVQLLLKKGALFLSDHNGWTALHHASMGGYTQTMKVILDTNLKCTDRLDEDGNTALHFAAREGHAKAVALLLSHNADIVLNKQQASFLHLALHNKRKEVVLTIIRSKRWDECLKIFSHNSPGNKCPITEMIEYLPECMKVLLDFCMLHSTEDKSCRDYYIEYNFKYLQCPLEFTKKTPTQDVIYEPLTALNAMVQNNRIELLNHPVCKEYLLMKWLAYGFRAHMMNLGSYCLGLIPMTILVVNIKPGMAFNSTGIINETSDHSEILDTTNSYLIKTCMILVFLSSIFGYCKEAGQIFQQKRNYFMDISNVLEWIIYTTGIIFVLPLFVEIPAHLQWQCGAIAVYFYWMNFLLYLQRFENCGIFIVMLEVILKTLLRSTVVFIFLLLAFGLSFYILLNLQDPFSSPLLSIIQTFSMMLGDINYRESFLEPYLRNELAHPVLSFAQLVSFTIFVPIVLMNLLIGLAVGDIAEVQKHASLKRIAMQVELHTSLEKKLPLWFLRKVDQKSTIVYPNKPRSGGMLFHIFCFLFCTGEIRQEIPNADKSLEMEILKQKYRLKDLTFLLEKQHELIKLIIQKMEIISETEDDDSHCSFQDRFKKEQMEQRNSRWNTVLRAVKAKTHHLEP
- Experimental details: cell-based
- Experimental conditions: HEK293; percentage of the control (allyl isothiocyanate) calcium count; material dissolved in DMSO at 100 micromolar; HEK cells with TRPA1; direct addition; read-out: TRPA1 Direct addition
Endpoint label: activation at 100 µM (%)
Note: unit % is implicit; provide only the numeric part.

molecule CCCCCC/C=C/C=C/C=O [trans,trans-2,4-Undecadienal] , activation at 100 µM observed: 122

molecule CCCCCCOC(=O)CC [Hexyl Propionate] , activation at 100 µM observed: -15.9

molecule CCC(C)CO (centres unmarked) , activation at 100 µM observed: -1.19

molecule CCCCCCC(C)=O , activation at 100 µM observed: -17.1

molecule C=C1C2CCC(C2)C1(C)C (centres unmarked) , activation at 100 µM observed: -1.43

molecule O=C(c1ccccc1)C(O)c1ccccc1 (centres unmarked) , activation at 100 µM observed: -0.5

molecule CC(=O)OC(C)c1ccccc1 (stereo not drawn) [Alpha-Methylbenzyl Acetate] , activation at 100 µM observed: 1.45

molecule CC(CC=O)CC(C)(C)C (centres unmarked) , activation at 100 µM observed: 75.7

molecule CC1(C)C2CCC1(C)C(O)C2 (centres unmarked) , activation at 100 µM observed: -1.6

molecule CCc1ncc(C)nc1CC , activation at 100 µM observed: 0.99

molecule Cc1cnc(C)cn1 , activation at 100 µM observed: -1.08

molecule CCC/C=C/COC(C)=O [Trans-2-Hexenyl Acetate] , activation at 100 µM observed: -0.32

molecule CC(=O)OCC=Cc1ccccc1 [Cinnamyl Acetate] , activation at 100 µM observed: -0.13

molecule CC/C=C\CCCCCO [cis-6-Nonen-1-ol] , activation at 100 µM observed: 2.38

molecule CCCCCC(=O)OCC(C)C [Isobutyl Hexanoate] , activation at 100 µM observed: -17.1

molecule C=CCOC(=O)CCC [Allyl Butyrate] , activation at 100 µM observed: 0.02

molecule CCC(C)C1CCCCC1=O (centres unmarked) , activation at 100 µM observed: -1.47
